Taken from patent US20260109763A1.

- Measured on: human PILRA R78 on cells (human, UniProt Q9UKJ1 20-303)
- Sequence (Q9UKJ1 20-303 limits assumed): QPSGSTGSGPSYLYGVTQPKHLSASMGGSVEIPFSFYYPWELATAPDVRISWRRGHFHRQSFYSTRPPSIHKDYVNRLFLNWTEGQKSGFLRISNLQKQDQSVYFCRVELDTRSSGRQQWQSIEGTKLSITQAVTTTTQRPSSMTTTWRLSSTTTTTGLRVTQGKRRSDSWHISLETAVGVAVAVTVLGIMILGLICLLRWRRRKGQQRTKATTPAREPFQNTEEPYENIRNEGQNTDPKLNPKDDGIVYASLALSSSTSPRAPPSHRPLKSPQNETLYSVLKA
- Assay procedure: cell-based or functional assay
Quantity name: pSTAT3 Y705 induction, Fold Over Background (fold)
Please give a number only; it is taken to be in fold.

In the examples that follow, each entry is paired with its recorded pSTAT3 Y705 induction, Fold Over Background.
- Binder: "Anti-PILRA antibody clone 23 (antibody, V domains shown, Humanized; also called Ab.23) VH: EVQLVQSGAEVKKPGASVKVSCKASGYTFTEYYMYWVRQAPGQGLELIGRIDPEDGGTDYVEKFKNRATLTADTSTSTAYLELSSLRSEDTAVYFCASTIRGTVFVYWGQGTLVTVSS VL: DIQMTQSPSSLSASVGDRVTITCRPSEDIYNGLAWYQQKPGKAPKLLIYNANSLHTGVPSRFSGSGSGTDYTLTISSLQPEDFATYYCQQYYDYPLTFGQGTKVEIK"
  Reported result: 36.2
- Binder: "Anti-PILRA antibody clone 15 (antibody, V domains shown, Humanized; also called Ab.15) VH: EVQLVQSGAEVKKPGASVKVSCKASGYTFTEYYMYWVRQAPGQGLELIGRIDPEDGGTDYIEKFKNRSTLTADTSTSTAYLELSSLRSEDTAVYFCATTIRGTVFAFWGQGTLVTVSS VL: DIQMTQSPSSLSASVGDRVTITCRASEDIFNGLAWYQQKPGKSPKLLIYNAKTLHTGVPSRFSGSGSGSDYTLTISSLQPEDFATYFCQQYYDYPLTFGQGTKVEIK"
  Reported result: 38.2
- Binder: "Anti-PILRA antibody clone 7 (antibody, V domains shown) VH: EVQLQQSGPELQRPGASVKLSCKASGYTFTEYYMYWVKQRPKQGLELMGRIDPEDGGTDYVEKFKNKATLTADTSSNTAYMQLSSLTSEDTATYFCASTIRGTVFVYWGQGTLVTVSS VL: DIQMTQSPASLSASLGETVTIECRPSEDIYNGLAWYQQKPGESPQLLIYNANSLHTGVPSRFSGSGSGTQYSLKINSLQSEDVASYFCQQYYDYPLTFGSGTKLEIK"
  Reported result: 38.3

Shifting focus to the binder that follows.
**Q:** What value of pSTAT3 Y705 induction, Fold Over Background has been reported for the following binder? Anti-PILRA antibody clone 12 (antibody, V domains shown, Humanized; also called Ab.12) VH: EVQLVQSGAEVKKPGASVKVSCKASGYTFTEYYMYWVRQAPGQGLELIGRIDPEDGGTDYIEKFKNRVTITADTSTSTAYLELSSLRSEDTAVYYCATTIRGTVFAFWGQGTLVTVSS VL: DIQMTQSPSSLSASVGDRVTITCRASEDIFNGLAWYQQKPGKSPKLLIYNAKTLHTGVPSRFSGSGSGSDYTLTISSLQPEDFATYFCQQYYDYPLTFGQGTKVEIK
**A:** 34.6
